Kindly supply the reported cell viability values for the records listed here.
System: HepG2
Test: cell viability relative to DMSO; higher = less toxic
Conditions: 72 h; 10 nM
Answer format: numeric, % implied, no suffix.

Reported cell viability for Cc1noc(C)c1-c1ccc(-c2cc(C(N)=O)c(NC(N)=O)s2)c(O[C@H]2CCNC2)c1 [AZD3264] was 97.6

Reported cell viability for CC(C)(N)c1cc(C(=O)N[C@@H]2CCc3ccc(Oc4ccnc5c4CCC(=O)N5)cc3C2)cc(C(F)(F)F)c1 [ML786] was 110

Reported cell viability for OC(CCN1CCCCC1)(c1ccccc1)C1CCCCC1 (stereo not drawn) [trihexyphenidyl] was 87.7

Reported cell viability for CC1CC(OC(=O)C(O)c2ccccc2)CC(C)(C)N1C (stereo not drawn) [eucatropine] was 88.3

Reported cell viability for CC(C)[C@@H](C)/C=C/[C@@H](C)[C@H]1CC[C@H]2C3=CC=C4C[C@@H](O)CC[C@]4(C)[C@H]3CC[C@]12C [ergosterol] was 102

Reported cell viability for C[C@H](NCc1ccc(OCc2ccccc2F)cc1)C(N)=O [priralfinamide] was 87.3

Reported cell viability for O[C@@H](CN1CCNCC1)Cn1c2ccc(Br)cc2c2cc(Br)ccc21 [BAX-channel-blocker] was 102

Reported cell viability for CN1C(=O)CN=C(c2ccccc2)c2cc(Cl)ccc21 [diazepam] was 105

---

System: Caco-2
Assay: cell viability relative to DMSO; higher = less toxic
Settings: 72 h; 1000 nM
readout-name: cell viability (%)
Answer format: numeric, % implied, no suffix.

Reported cell viability for CC(C)NCC(O)c1ccc(N)c(C#N)c1 (stereo unspecified) was 89.8

Reported cell viability for COC1=C[C@@H]2[C@@H]3Cc4ccc(OC)c(O)c4[C@]2(CCN3C)CC1=O was 98.8

Reported cell viability for CCCCCCCCCCCCC[N+](C)(C)Cc1ccccc1 was 108

Reported cell viability for CCn1c2ccccc2c2cc(CNCc3ccccc3OC)ccc21 was 107

Reported cell viability for C[C@H]1[C@H](OC(=O)CCC(=O)O)O[C@@H]2O[C@@]3(C)CC[C@H]4[C@H](C)CC[C@@H]1[C@@]24OO3 [artesunate] was 98.3

Reported cell viability for CS(=O)(=O)CCNCc1nc(-c2ccc3ncnc(Nc4ccc(OCc5cccc(F)c5)c(Cl)c4)c3c2)cs1 was 80.8

Reported cell viability for COc1ccc(O)cc1 was 104

Reported cell viability for NC[C@H]1O[C@H](O[C@H]2[C@H](O)[C@@H](O[C@H]3O[C@H](CO)[C@@H](O)[C@H](N)[C@H]3O)[C@H](N)C[C@@H]2N)[C@H](N)[C@@H](O)[C@@H]1O was 110

Reported cell viability for C[N+]1([O-])[C@@H]2C[C@@H](OC(=O)[C@H](CO)c3ccccc3)C[C@H]1[C@@H]1O[C@@H]12 (stereo partly specified) [scopolamine-N-oxide] was 96.6

Reported cell viability for CCCCCCCCC(=O)N[C@H](CN1CCCC1)[C@H](O)c1ccc2c(c1)OCCO2 was 111

Reported cell viability for C[C@H](NCc1ccc(OCc2ccccc2F)cc1)C(N)=O [priralfinamide] was 95

Reported cell viability for CC[C@H]1OC(=O)[C@H](C)[C@@H](O[C@H]2C[C@@](C)(OC)[C@@H](O)[C@H](C)O2)[C@H](C)[C@@H](O[C@@H]2O[C@H](C)C[C@H](N(C)C)[C@H]2O)[C@](C)(O)C[C@@H](C)C(=O)[C@H](C)[C@@H](O)[C@]1(C)O was 94.4

Reported cell viability for N#Cc1ccccc1-c1cc(-c2ccccn2)cn(-c2ccccc2)c1=O was 93.6

Reported cell viability for NC(=O)CN1CC[C@@H](NC(=O)[C@@H]2CCCN2)C1=O was 134

Reported cell viability for Cc1cccc(C)c1NC(=O)CC12CCCN1CCC2 [pilsicainide] was 94.7

Reported cell viability for Cn1cc(C2=C(c3cn(C4CCN(Cc5ccccn5)CC4)c4ccccc34)C(=O)NC2=O)c2ccccc21 was 98.4

---

Test system: Caco-2
Assay: cell viability relative to DMSO; higher = less toxic
Details: 72 h; 1000 nM
Kindly supply the reported cell viability values for the records listed here.
Answer format: numeric, % implied, no suffix.

Note to self: cell viability of NCCS(=O)(=O)O with Caco-2 was 95.6

Note to self: cell viability of COc1cc(/C=C2\CCC/C(=C\c3ccc(O)c(OC)c3)C2=O)ccc1O with Caco-2 was 96.1

Note to self: cell viability of NCCc1c[nH]cn1 with Caco-2 was 110

Note to self: cell viability of O=S(=O)(O)c1cc(I)c(O)c2ncccc12 with Caco-2 was 104

Note to self: cell viability of CCOc1cncc(/C=C/CCNC)c1 with Caco-2 was 108

Note to self: cell viability of O=C1C(=C(O)/C=C/c2ccc(O)cc2)C(=O)[C@@](O)([C@@H]2O[C@H](CO)[C@@H](O)[C@H](O)[C@H]2O)C(=O)[C@H]1[C@@H]1O[C@H](CO)[C@@H](O)[C@H](O)[C@H]1O with Caco-2 was 93.3

---

Kindly supply the reported relative viability EC50 values for the records listed here.
Tested on: Caco-2
Assay: relative viability EC50 (midpoint between 100% and the lowest measured viability); higher = less toxic
Settings: 72 h

Reported relative viability EC50 for CC(C)(C)c1ccc(-c2nc3ccccc3[nH]2)cc1 [ZLN005] was 1.4 µM

Reported relative viability EC50 for C[n+]1cccc(C(=O)[O-])c1 [trigonelline] was > 10 µM

Reported relative viability EC50 for NC(=O)CN1CC[C@@H](NC(=O)[C@@H]2CCCN2)C1=O [PAOPA] was > 10 µM

Reported relative viability EC50 for CC/C=C\C/C=C\C/C=C\C/C=C\C/C=C\C/C=C\CCC(=O)OCC [doconexent-ethyl-ester] was > 10 µM

Reported relative viability EC50 for CC[C@@H](c1ccc(F)c(F)c1)n1c(C(=O)OC)c(-c2ccno2)[nH]c1=S was > 10 µM

Reported relative viability EC50 for CC(C)(C)c1ccc(C(=O)Nc2cn3cc(-n4ccnc4)ccc3n2)cc1 [TC-ASK-10] was > 10 µM

Reported relative viability EC50 for COc1cc(NC(=O)c2ccccn2)ccc1Cl was > 10 µM

---

Test system: Vero E6
Experiment: cell viability relative to DMSO; higher = less toxic
Conditions: 72 h; 1000 nM
readout-name: cell viability (%)
Answer format: numeric, % implied, no suffix.

Reported cell viability for COc1cc2c(c(OC)c1OC)-c1c(cc3c(c1OC)OCO3)C[C@H](C)[C@@](C)(O)C2 was 100

Reported cell viability for CC[N+](CC)(CC)CC(=O)Nc1c(C)cccc1C was 97.8

Reported cell viability for CN1CCN(C(=O)C2C(C(=O)O)[C@H]3CC[C@@H]2O3)CC1 (some centres undefined) was 99

Reported cell viability for c1ccc(CN2CCC3(CCc4ccccc43)CC2)cc1 was 94.4

Reported cell viability for CCCC(C)NC(=O)c1ccc(Cl)c(Cl)c1 (centres undefined) was 103

Reported cell viability for CCCCCCCCCCCCC[N+](C)(C)Cc1ccccc1 was 105

Reported cell viability for CN(C)C(=O)[C@H](O)[C@H](Cc1ccccc1)NC(=O)c1cc2cc(Cl)ccc2[nH]1 was 98.3

Reported cell viability for CCCc1nc2c(C)cc(-c3nc4ccccc4n3C)cc2n1Cc1ccc(-c2ccccc2C(=O)O)cc1 was 92.9

Reported cell viability for CO[C@]12C[C@@H](COC(=O)c3cncc(Br)c3)CN(C)[C@@H]1Cc1cn(C)c3cccc2c13 was 97.4

---

System: HepG2
Assay: cell viability relative to DMSO; higher = less toxic
Conditions: 72 h; 10000 nM
readout-name: cell viability (%)
Answer format: numeric, % implied, no suffix.

Note to self: cell viability of CC[C@H]1OC(=O)[C@H](C)[C@@H](O[C@H]2C[C@@](C)(OC)[C@@H](O)[C@H](C)O2)[C@H](C)[C@@H](O[C@@H]2O[C@H](C)C[C@H](N(C)C)[C@H]2O)[C@](C)(O)C[C@@H](C)C(=O)[C@H](C)[C@@H](O)[C@]1(C)O with HepG2 was 90.4

Note to self: cell viability of C=CC(=O)Nc1cc(Nc2nccc(-c3c[nH]c4ccccc34)n2)c(OC)cc1N(C)CCN(C)C with HepG2 was 9.2

Note to self: cell viability of CC1(C)CN(C(=O)c2ccc(-c3cccc4nc(NC(=O)C5CC5)nn34)cc2)C1 with HepG2 was 96.6

Note to self: cell viability of CN1C(=O)CN=C(c2ccccc2)c2cc(Cl)ccc21 with HepG2 was 101

Note to self: cell viability of OC(CCN1CCCCC1)(c1ccccc1)C1CCCCC1 (centres undefined) with HepG2 was 83.4

Note to self: cell viability of N=C(N)NCCC[C@H](NC(=O)[C@@H]1CCCN1C(=O)[C@@H]1CSSC[C@H](N)C(=O)N[C@@H](Cc2ccc(O)cc2)C(=O)N[C@@H](Cc2ccccc2)C(=O)N[C@@H](CCC(N)=O)C(=O)N[C@@H](CC(N)=O)C(=O)N1)C(=O)NCC(N)=O with HepG2 was 99.5

Note to self: cell viability of COc1nc(N)nc2c1ncn2[C@@H]1O[C@H](CO)[C@@H](O)[C@@H]1O with HepG2 was 109

Note to self: cell viability of C[C@H](CCC(=O)O)[C@H]1CC[C@H]2[C@@H]3[C@@H](O)C[C@@H]4C[C@H](O)CC[C@]4(C)[C@H]3CC[C@]12C with HepG2 was 106

Note to self: cell viability of COC1CCN(C(=O)c2cc(Cc3n[nH]c(=O)c4ccccc34)ccc2F)CC1 with HepG2 was 87.2

Note to self: cell viability of COc1ccc(O)cc1 with HepG2 was 79.7

Note to self: cell viability of CN(C)CCCN1c2ccccc2Sc2ccccc21 with HepG2 was 87.6

Note to self: cell viability of COc1cc(NC(=O)c2ccccn2)ccc1Cl with HepG2 was 94.9

Note to self: cell viability of O[C@@H](CN1CCNCC1)Cn1c2ccc(Br)cc2c2cc(Br)ccc21 with HepG2 was 0.2

Note to self: cell viability of CCCCOCCOc1nc(-c2ccc(C(=O)O)c(F)c2)sc1C with HepG2 was 102

Note to self: cell viability of CCOC(=O)[C@@H](N)Cc1ccc(O)c(O)c1 with HepG2 was 92.5

Note to self: cell viability of CC1(C)CC(=O)c2c(C(F)(F)F)nn(-c3ccc(C(N)=O)c(N[C@H]4CC[C@H](OC(=O)CN)CC4)c3)c2C1 with HepG2 was 1.9

Note to self: cell viability of CCn1c2ccccc2c2cc(CNCc3ccccc3OC)ccc21 with HepG2 was 79.2

Note to self: cell viability of O=C1CCC[C@@H]2[C@H]3CCC[N+]4([O-])CCC[C@@H](CN12)[C@@H]34 (some centres undefined) with HepG2 was 108

Note to self: cell viability of O=C(O)COc1cccc(CN(Cc2ccc(-n3cccn3)cc2)S(=O)(=O)c2cccnc2)c1 with HepG2 was 96.4

Note to self: cell viability of CCCCCCCCC(=O)N[C@H](CN1CCCC1)[C@H](O)c1ccc2c(c1)OCCO2 with HepG2 was 104

Note to self: cell viability of CN1CCc2c(c3ccccc3n2Cc2ccccc2)C1 [mebhydrolin] with HepG2 was 94.2

Note to self: cell viability of NC(=O)CCCCn1ccc(/N=C(\N)NCC(F)(F)F)n1 with HepG2 was 105

Note to self: cell viability of CC[N+](C)(CC)CCOC(=O)C1c2ccccc2Oc2ccccc21 with HepG2 was 97.5

Note to self: cell viability of C[C@]12CC[C@H]3[C@@H](CC[C@]4(O)C[C@@H](O)CC[C@]34C=O)[C@@]1(O)CC[C@@H]2C1=CC(=O)OC1 with HepG2 was 14.8

Note to self: cell viability of CCCCCCCCCCCCC[N+](C)(C)Cc1ccccc1 with HepG2 was 22.9

Note to self: cell viability of O=c1[nH]c(=O)n([C@H]2C[C@H](O)[C@@H](CO)O2)cc1F with HepG2 was 43.1

Note to self: cell viability of COc1cc2c(c(OC)c1OC)-c1c(cc3c(c1OC)OCO3)C[C@H](C)[C@@](C)(O)C2 with HepG2 was 100

Note to self: cell viability of Cc1cccc(C)c1NC(=O)CN1CCCC1=O with HepG2 was 100

Note to self: cell viability of O=C(/C=C/c1ccc(O)c(O)c1)c1ccc(O)cc1O with HepG2 was 58.4

Note to self: cell viability of N#Cc1ccc2[nH]cc(CCCCN3CCN(c4ccc5oc(C(N)=O)cc5c4)CC3)c2c1 with HepG2 was 66.4

Note to self: cell viability of CCOc1cncc(/C=C/CCNC)c1 with HepG2 was 117

Note to self: cell viability of COC(=O)[C@]12CCC(C)(C)C[C@H]1[C@H]1C(=O)C=C3[C@@]4(C)C=C(C#N)C(=O)C(C)(C)[C@@H]4CC[C@@]3(C)[C@]1(C)CC2 with HepG2 was -0.2

Note to self: cell viability of CC(C)(C)C(=O)C(Oc1ccc(Cl)cc1)n1ccnc1 (centres undefined) with HepG2 was 102

Note to self: cell viability of O=C1c2cccc(O)c2C(=O)c2c(O)cc(CO)cc21 with HepG2 was 95.2

// provenance: the supplement of paper PMC13380429
